assay: AUC in BALB/c mouse at 10 mg/kg, po; format: ADME, organism-based; set-up: dose 10 mg/kg; details: in vivo
propertyMeasured: AUC

molecularstring=O=C(O)[C@H]1CC[C@H](C(=O)N2CC[C@](c3ccc(C(OCC4CCCCC4)(C(F)(F)F)C(F)(F)F)cc3)(S(=O)(=O)c3ccc(F)cc3)C2)CC1 assayresult="36.8 µM·h"

With those in mind, consider the next compound.
# return recorded AUC for input O=C(O)[C@H]1CC[C@H](C(=O)N2CC[C@](c3ccc(C(OCc4c(F)cccc4F)(C(F)(F)F)C(F)(F)F)cc3)(S(=O)(=O)c3ccc(F)cc3)C2)CC1
11.3 µM·h
